test: Bioavailability in rat after p.o. administration at a dose of 30 mg/kg; format: ADME, organism-based; details: in vivo, po

compound	measureUnit	bioavailability
CCC1CCN(C(=O)[C@H](Cc2ccc(N)cc2)NS(=O)(=O)c2cnccc2N[C@H](COCCO)Cc2ccccc2)CC1 (stereo in doubt; 62)	%	55
